I'd appreciate it if you could supply pIC50 values for the items below.
Target: 17-beta-hydroxysteroid dehydrogenase type 2 (Homo sapiens, UniProt P37059)
Sequence (P37059 whole entry): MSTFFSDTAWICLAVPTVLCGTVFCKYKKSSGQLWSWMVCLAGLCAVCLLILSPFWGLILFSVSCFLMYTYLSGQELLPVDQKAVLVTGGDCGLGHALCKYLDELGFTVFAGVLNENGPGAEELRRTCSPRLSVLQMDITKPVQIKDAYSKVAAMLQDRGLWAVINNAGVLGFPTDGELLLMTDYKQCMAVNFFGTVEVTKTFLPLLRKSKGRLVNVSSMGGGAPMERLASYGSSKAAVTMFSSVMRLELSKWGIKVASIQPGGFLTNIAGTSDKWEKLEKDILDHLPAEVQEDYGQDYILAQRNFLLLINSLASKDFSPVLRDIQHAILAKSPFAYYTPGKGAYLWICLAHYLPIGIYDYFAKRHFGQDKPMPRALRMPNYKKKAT
pIC50 here: minus log base 10 of the concentration, concentration in moles per litre.

Ask: Under 17-beta-hydroxysteroid dehydrogenase type 2 (Homo sapiens, UniProt P37059): report pIC50 of NS(=O)(=O)c1cccc(-c2ccc(C(=O)c3c(F)ccc(O)c3F)s2)c1 .
Result: 7.07

Ask: Under 17-beta-hydroxysteroid dehydrogenase type 2 (Homo sapiens, UniProt P37059): report pIC50 of O=C(c1ccc(-c2cccnc2)s1)c1c(F)ccc(O)c1F .
Result: 7.33

Ask: Under 17-beta-hydroxysteroid dehydrogenase type 2 (Homo sapiens, UniProt P37059): report pIC50 of NS(=O)(=O)c1ccc(-c2ccc(C(=O)c3c(F)ccc(O)c3F)s2)cc1 .
Result: 7.07
